Could you please report measured inhibition for the items listed next?
target: Solute carrier family 2, facilitated glucose transporter member 1 (Homo sapiens) (UniProt P11166); assay: ST_JUDE_LEISH: Cytotoxicity at 2uM final concentration against transgenic Leishmania Mexicana promastigotes LmGLUT1 that are glucose transport deficient and complemented with the human glucose transporter GLUT1. Activity is measured by DNA content using SYBR green in vitro; assay type: functional
Sequence (P11166 whole entry): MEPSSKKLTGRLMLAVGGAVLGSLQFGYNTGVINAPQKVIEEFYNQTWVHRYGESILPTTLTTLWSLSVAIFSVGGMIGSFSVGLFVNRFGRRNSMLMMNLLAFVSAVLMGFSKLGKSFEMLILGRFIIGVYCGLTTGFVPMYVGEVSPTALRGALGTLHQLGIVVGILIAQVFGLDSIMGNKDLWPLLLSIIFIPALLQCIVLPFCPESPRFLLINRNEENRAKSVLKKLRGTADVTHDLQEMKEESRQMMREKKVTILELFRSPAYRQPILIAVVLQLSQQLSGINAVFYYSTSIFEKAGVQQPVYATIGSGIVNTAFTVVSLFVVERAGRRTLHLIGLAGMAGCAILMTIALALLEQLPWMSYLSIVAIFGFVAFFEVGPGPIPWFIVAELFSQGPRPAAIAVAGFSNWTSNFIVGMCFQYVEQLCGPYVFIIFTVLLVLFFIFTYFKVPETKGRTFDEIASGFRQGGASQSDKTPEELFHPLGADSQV

Some entries whose results are on file:
CCOC(=O)c1nc(-c2cccc(F)c2)[nH]c1N; 1.32%
CC(C)CNCc1cccc(-c2ccc(CNc3ccc4ncccc4c3)cc2)c1; 1.45%
CC(C)(C)c1ccc(CN2CCCCC(NC(=O)c3cc(-c4ccccc4Cl)cs3)C2)cc1 (stereo not given); 2.83%
CCOc1ccc(-c2nonc2NC(=O)c2ccc(Cl)cc2)cc1OCC; 4.45%
CN(C)CCOc1cc(NC(=O)Nc2cccc3c(-c4ccncc4)cccc23)ccc1I; 4.55%

Lab note: each compound below needs its inhibition filled in.
1. CC1(C)NC(N)=NC(=N)N1OCCCOc1cccc(Cl)c1
2. CN(C)Cc1cccc(-c2ccc(NC(=O)c3ccc4c(=O)n(Cc5cnn(C)c5)cnc4c3)cc2)c1
3. COc1ccc(NS(=O)(=O)c2ccc(C(=O)Nc3ccc(OC(F)(F)F)cc3)cc2)cc1N1CCN(CC2CC2)CC1
4. N=C(N)NN=CC(=O)Nc1ccc(Br)cc1
5. O=C(NCC(c1ccc(C(F)(F)F)cc1)N1CCCC1)c1cc(-c2ccncc2)c(-c2cccc(O)c2)o1 (stereo not given)

Return:
3.04%
1.78%
6.41%
-1.7%
0.81%
